target: TRIM25 CC-PRY/SPRY penta-mutant (UniProt Q14258 189-630, K283A;K285A;H505E;K508E;K602E); experiment: ITC; ITC and filter binding: 20 mM MES pH 6.5, 75 mM NaCl, 0.5 mM TCEP (ITC 20 C, filter binding on ice); NMR: 20 mM Na phosphate pH 6.5, 150 mM NaCl, 2 mM TCEP, 293 K; settings: protein: recombinant; tags: His-Trx (removed); chain copies: 2; hairpin
Sequence (Q14258 189-630 K283A/K285A/H505E/K508E/K602E): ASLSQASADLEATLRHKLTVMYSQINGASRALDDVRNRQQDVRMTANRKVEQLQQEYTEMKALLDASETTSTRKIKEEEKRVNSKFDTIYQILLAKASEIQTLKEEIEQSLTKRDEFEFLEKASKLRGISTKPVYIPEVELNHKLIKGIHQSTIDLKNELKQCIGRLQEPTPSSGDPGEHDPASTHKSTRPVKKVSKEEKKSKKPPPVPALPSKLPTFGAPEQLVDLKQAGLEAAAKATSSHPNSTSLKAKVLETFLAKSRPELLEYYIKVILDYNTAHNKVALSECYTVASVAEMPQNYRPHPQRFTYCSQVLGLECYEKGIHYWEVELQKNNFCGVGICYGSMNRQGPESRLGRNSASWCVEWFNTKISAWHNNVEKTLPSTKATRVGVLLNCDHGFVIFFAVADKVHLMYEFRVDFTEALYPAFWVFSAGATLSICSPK
pKd: −log10 of the molar value.

{"binder": "GCAGGUCGGAUUAAGCCAUAGUACGGGAAAAACUAUGCUACCUG (structured_RNA) [DENV-SL]", "pKd": 6.44}
